study.target: HDAC9 (Homo sapiens, UniProt Q9UKV0)
Sequence (Q9UKV0 whole entry): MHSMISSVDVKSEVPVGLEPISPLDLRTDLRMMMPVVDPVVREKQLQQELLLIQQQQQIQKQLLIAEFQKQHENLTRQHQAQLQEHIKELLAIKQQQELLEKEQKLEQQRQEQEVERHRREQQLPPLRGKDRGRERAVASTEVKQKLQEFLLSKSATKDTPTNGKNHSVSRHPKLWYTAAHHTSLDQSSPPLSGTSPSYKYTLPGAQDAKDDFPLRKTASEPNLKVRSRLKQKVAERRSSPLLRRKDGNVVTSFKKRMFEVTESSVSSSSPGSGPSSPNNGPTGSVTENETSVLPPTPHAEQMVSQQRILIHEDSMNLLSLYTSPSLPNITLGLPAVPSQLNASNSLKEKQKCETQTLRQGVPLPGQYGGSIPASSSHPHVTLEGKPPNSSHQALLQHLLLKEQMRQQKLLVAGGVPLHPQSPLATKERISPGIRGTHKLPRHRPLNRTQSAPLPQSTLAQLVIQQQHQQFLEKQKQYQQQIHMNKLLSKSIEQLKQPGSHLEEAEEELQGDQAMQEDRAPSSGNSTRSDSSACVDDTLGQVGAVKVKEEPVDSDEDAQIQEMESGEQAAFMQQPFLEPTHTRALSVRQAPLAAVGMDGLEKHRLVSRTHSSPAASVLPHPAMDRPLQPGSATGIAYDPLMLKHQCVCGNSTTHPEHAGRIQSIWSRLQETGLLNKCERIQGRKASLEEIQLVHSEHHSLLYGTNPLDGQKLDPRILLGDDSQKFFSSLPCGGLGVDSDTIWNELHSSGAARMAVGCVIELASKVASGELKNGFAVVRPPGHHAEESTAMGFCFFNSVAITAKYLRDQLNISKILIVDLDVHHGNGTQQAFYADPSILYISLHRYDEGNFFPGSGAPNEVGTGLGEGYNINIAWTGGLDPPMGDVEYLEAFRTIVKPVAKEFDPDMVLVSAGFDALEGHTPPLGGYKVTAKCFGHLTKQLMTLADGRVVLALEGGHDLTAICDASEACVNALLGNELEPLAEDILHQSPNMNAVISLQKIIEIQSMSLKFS
reported.endpoint: pIC50
The meaning of pIC50 here: minus log10 of the concentration in molar units.

[in] Specify pIC50 for COc1cc2cc(c1)C(=O)Nc1ccccc1NC(=O)[C@@H](CCCCCC(=O)NO)OC/C=C\2 [Example 2] and stop.
[out] 5.94

###

Parameter pIC50, tested on HDAC8 (Homo sapiens, UniProt Q9BY41), listed per item.
Sequence (Q9BY41 whole entry): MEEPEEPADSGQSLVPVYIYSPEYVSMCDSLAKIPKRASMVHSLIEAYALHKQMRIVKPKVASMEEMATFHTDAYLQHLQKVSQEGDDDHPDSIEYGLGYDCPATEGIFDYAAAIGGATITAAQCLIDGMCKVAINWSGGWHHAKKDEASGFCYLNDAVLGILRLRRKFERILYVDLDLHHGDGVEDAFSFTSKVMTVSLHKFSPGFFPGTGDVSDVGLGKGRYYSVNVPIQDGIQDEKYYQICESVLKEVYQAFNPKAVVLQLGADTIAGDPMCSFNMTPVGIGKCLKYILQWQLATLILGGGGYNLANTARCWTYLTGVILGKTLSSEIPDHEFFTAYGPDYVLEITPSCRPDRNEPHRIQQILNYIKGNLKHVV
By convention, pIC50 is the negative base-10 log of a molar concentration.

[in] Specify reported pIC50 for the compound shown: COc1cc2cc(c1)C(=O)Nc1ccccc1NC(=O)[C@@H](CCCCCC(=O)NO)OC/C=C\2 [Example 2]
[out] 6.17

[in] Kindly indicate its recorded pIC50. Item: COc1cc2cc(c1)C(=O)Nc1ccccc1NC(=O)[C@H](CCCCCC(=O)NO)OC/C=C\2 [Example 1]
[out] 6.27
